- Assayed target: T1, cyno PD-L1 (cyno (cynomolgus monkey), UniProt G7PSE7 19-239)
- T1 construct: also called cynomolgus PD-L1
- T1 sequence (G7PSE7 entry or part of it): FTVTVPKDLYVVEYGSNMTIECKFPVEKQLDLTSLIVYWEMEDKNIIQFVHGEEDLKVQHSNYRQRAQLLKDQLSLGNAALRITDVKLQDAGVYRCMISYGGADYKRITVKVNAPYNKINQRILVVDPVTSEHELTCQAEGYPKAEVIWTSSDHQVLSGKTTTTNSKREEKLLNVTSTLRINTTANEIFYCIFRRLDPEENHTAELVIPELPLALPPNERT
- Assay details: SPR (Biacore), cyno PD-L1
Measurement type: Kd (nM)

{"columns": ["Binder", "Kd [nM]"],
 "data": [
  ["ATI-964 (designed binder, 10Fn3 Adnectin; also called parent of ADX_5322_A02) MGVSDVPRDLEVVAATPTSLLISWSYDGSIERYYRITYGETGGNSPVQEFTVPPDQKTATISGLKPGVDYTITVYAVRLEEAHYYRESPISINYRTEIDKPSQHHHHHH", 0.14]
]}

1 = ATI-965 (designed binder, 10Fn3 Adnectin) MGVSDVPRDLEVVAATPTSLLISWTAYDSVDKYYRITYGETGGNSPVQEFTVGPRHHTATISGLKPGVDYTITVYAVYHTEPGYHAHMPISINYRTEIDKPSQHHHHHH
2 = ATI-967 (designed binder, 10Fn3 Adnectin; also called parent of ADX_5417_E01) MGVSDVPRDLEVVAATPTSLLISWQGQLSPSFYYRITYGETGGNSPVQEFTVPVASGTATISGLKPGVDYTITVYAVTSHGIYFYAPISINYRTEIDKPSQHHHHHH
**Q:** Please compare: 1 and 2 . Report which one has the smaller Kd value. // output: label of the selected item
**A:** 2

a = ATI-966 (designed binder, 10Fn3 Adnectin) MGVSDVPRDLEVVAATPTSLLISWHRFSSIMAYYRITYGETGGNSPVQEFTVAGSVNTATISGLKPGVDYTITVYAVTIHNVSFPISINYRTEIDKPSQHHHHHH
b = ATI-968 (designed binder, 10Fn3 Adnectin; also called ADX_1760_C01) MGVSDVPRDLEVVAATPTSLLISWIAPFYNVIYYRITYGETGGNSPVQEFTVPGTGYTATISGLKPGVDYTITVYAVTDGASIASYAFPISINYRTEIDKPSQHHHHHH
**Q:** Hi there, can you help? I need to know whether a or b has lower measured Kd. Your answer should be the label of the entry you select.
**A:** a
(a: 0.038 nM, b: 0.11 nM)
